# pIC50 values compiled below
Target: UniProt O75762
Test: Inhibition of TRPA1 (unknown origin)
pIC50: −log10 of the molar value.

{"columns": ["smiles.code", "test.result"],
 "data": [
  ["COc1ccccc1/C=C/c1ccccc1", "5.66 to 5.77"]
]}

Attention now turns to another entry.
Write down pIC50 measured for item Oc1ccccc1/C=C/c1ccccc1
5.66 to 5.77

###

# fold change (FC) values compiled below
Molecular target: Transient receptor potential cation channel subfamily A member 1 (Homo sapiens)
Experiment: Agonist activity at human TRPA1 expressed in HEK293 cells assessed as induction of calcium influx at 30 uM after 6 mins by Fluo-4 dye-based assay relative to AITC
Assay type: cell-based
Settings: hek293, 0.1 h
Respond with the number and no other words.

{"columns": ["molecule", "fold change (FC)"],
 "data": [
  ["CCOc1ccc(/C=C/c2cc(O)cc(O)c2)cc1", 0.3]
]}

For Transient receptor potential cation channel subfamily A member 1 (Homo sapiens), give the measured fold change (FC) of the entry Oc1cc(O)cc(/C=C/c2cccc3ccccc23)c1
0.3

For Transient receptor potential cation channel subfamily A member 1 (Homo sapiens), give the measured fold change (FC) of the entry Oc1cc(O)cc(/C=C/c2ccc(O)c(O)c2)c1
0.3

For Transient receptor potential cation channel subfamily A member 1 (Homo sapiens), give the measured fold change (FC) of the entry Oc1ccc(/C=C/c2ccc(O)c(O)c2)cc1
0.4

For Transient receptor potential cation channel subfamily A member 1 (Homo sapiens), give the measured fold change (FC) of the entry O=C(Nc1ccc(O)cc1)c1cc(O)cc(O)c1
0.3

For Transient receptor potential cation channel subfamily A member 1 (Homo sapiens), give the measured fold change (FC) of the entry CCCOc1ccc(/C=C/c2cc(O)cc(O)c2)cc1
0.3

###

Target: Transient receptor potential cation channel subfamily A member 1 (Homo sapiens, UniProt O75762)
Sequence (O75762 whole entry): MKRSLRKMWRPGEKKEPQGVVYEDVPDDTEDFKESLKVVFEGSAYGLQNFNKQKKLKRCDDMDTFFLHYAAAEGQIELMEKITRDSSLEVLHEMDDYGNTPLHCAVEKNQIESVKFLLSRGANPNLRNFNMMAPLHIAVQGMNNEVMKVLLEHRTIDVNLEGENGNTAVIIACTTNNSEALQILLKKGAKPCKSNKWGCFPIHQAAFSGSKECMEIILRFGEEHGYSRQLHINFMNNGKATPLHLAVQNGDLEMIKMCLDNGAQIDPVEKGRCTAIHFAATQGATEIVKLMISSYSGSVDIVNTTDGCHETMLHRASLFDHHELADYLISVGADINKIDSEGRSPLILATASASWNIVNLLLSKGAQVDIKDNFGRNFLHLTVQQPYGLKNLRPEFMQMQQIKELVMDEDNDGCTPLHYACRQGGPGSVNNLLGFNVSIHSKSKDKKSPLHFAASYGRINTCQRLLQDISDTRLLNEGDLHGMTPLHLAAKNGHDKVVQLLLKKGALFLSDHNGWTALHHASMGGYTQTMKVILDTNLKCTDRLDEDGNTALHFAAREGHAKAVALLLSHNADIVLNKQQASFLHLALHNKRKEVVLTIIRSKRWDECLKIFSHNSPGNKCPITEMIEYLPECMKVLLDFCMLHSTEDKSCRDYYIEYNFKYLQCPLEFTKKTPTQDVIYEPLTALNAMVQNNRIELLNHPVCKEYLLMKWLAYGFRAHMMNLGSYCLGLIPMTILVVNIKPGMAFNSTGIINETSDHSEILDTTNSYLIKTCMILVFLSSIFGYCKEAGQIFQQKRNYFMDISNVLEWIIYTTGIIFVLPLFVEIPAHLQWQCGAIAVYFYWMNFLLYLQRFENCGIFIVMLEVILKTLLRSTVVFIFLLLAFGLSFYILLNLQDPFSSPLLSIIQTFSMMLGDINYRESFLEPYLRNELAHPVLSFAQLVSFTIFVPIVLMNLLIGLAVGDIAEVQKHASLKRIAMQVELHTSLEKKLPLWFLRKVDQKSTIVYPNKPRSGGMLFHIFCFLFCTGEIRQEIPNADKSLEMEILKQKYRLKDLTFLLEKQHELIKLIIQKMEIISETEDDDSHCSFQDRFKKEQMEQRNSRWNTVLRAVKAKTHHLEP
Assay: Agonist activity at human TRPA1 expressed in HEK293 cells assessed as induction of calcium influx at 30 uM after 6 mins by Fluo-4 dye-based assay
outcome.measure: EC50

{"columns": ["compound", "EC50"],
 "data": [
  ["Oc1cccc(/C=C/c2cc(O)cc(O)c2)c1", "> 30 µM"],
  ["COc1ccc(NC(=O)c2cc(O)cc(O)c2)cc1", "> 30 µM"],
  ["Oc1ccccc1/C=C/c1ccccc1", "> 10 µM"],
  ["Oc1ccc(CCc2cc(O)cc(O)c2)cc1 [DIHYDRORESVERATROL]", "> 30 µM"],
  ["Clc1ccc(/C=C/c2cc(Cl)cc(Cl)c2)cc1", "> 30 µM"]
]}

Write down EC50 measured for item Clc1cc(Cl)cc(/C=C/c2ccccc2)c1
> 30 µM

Write down EC50 measured for item Oc1cc(O)cc(/C=C/c2ccc(Cl)cc2)c1
> 30 µM

Write down EC50 measured for item Oc1ccc(/C=C/c2cc(Br)c(O)c(Br)c2)cc1
> 10 µM

Write down EC50 measured for item Oc1ccc(/C=C/c2cc(O)cc(O)c2)cc1
> 30 µM

###

Target: Transient receptor potential cation channel subfamily A member 1 (Homo sapiens, UniProt O75762)
Assay: Inhibition of human TRPA1 expressed in HEK293 cells assessed as decrease in AITC-induced calcium influx at 30 uM preincubated for 6 mins followed by AITC addition measured for 1 min by Fluo-4 dye-based assay relative to resveratrol
Type: cell-based
Consider the reported fold change (FC) of an entry and match it to a band in 0: < 0.1; 1: ≥ 0.1 and < 0.6; 2: ≥ 0.6

These recorded examples may help you get a feel for the data.
{"columns": ["molecule", "class.assignment"],
 "data": [
  ["Oc1cc(O)cc(/C=C/c2cc(O)c(O)c(O)c2)c1", 1],
  ["COc1ccc(/C=C/c2cc(O)cc(O)c2)cc1OC [RHAPONTIGENIN]", 1],
  ["CC(=O)Oc1ccc(/C=C/c2cc(OC(C)=O)cc(OC(C)=O)c2)cc1 [TRIACETYLRESVERATROL]", 1],
  ["CCCOc1ccc(/C=C/c2cc(OCCC)cc(OCCC)c2)cc1", 0],
  ["Oc1cc(O)cc(/C=C/C2CCCCC2)c1", 1]
]}

Kindly state the category for this molecule: Clc1ccc(/C=C/c2cc(Cl)cc(Cl)c2)cc1
2

Kindly state the category for this molecule: Clc1cc(Cl)cc(/C=C/c2ccccc2)c1
2

Kindly state the category for this molecule: COc1ccc(/C=C/c2cc(O)cc(O)c2)cc1 [RESVERATROL 4'-METHYL ETHER]
1

Kindly state the category for this molecule: CCOc1ccc(/C=C/c2cc(O)cc(O)c2)cc1
0

###

Molecular target: UniProt:O75762
Test: Inhibition of human TRPA1 expressed in HEK293 cells assessed as decrease in AITC-induced calcium influx at 3 uM preincubated for 6 mins followed by AITC addition measured for 1 min by Fluo-4 dye-based assay relative to control
Format: cell-based
outcome.measure: inhibition (%)
Give the value, in units of %, as a plain number.

Worked cases, inhibition given:
{"columns": ["smiles.code", "test.result"],
 "data": [
  ["Clc1ccc(/C=C/c2cc(Cl)cc(Cl)c2)cc1", 3],
  ["Oc1ccccc1/C=C/c1ccccc1", -1.9],
  ["COc1ccc(NC(=O)c2cc(O)cc(O)c2)cc1", -5.9],
  ["Oc1ccc(/C=C/c2cc(Br)c(O)c(Br)c2)cc1", 14],
  ["Oc1ccc(/C=C/c2cc(O)cc(O)c2)cc1", -3.8]
]}

Attention now turns to another entry.
Write down inhibition measured for item Oc1cc(O)cc(/C=C/c2ccc(Cl)cc2)c1
6.1

###

Target: Transient receptor potential cation channel subfamily A member 1 (Homo sapiens, UniProt O75762)
Assay: Inhibition of human TRPA1 expressed in HEK293 cells assessed as decrease in AITC-induced calcium influx at 30 uM preincubated for 6 mins followed by AITC addition measured for 1 min by Fluo-4 dye-based assay relative to resveratrol
Format: cell-based
outcome.measure: fold change (FC)

Worked cases, fold change (FC) given:
{"columns": ["smiles.code", "fold change (FC)"],
 "data": [
  ["Oc1cccc(/C=C/c2cc(O)cc(O)c2)c1", 0.8],
  ["COCOc1ccc(/C=C/c2cc(OCOC)cc(OCOC)c2)cc1", 0.4],
  ["CCOc1ccc(/C=C/c2cc(OCC)cc(OCC)c2)cc1", 0.4],
  ["CCCCCCOc1ccc(/C=C/c2cc(O)cc(O)c2)cc1", 0.1],
  ["Oc1ccccc1/C=C/c1ccccc1", 1.1],
  ["COc1ccccc1/C=C/c1ccccc1", 0.3],
  ["Clc1ccc(/C=C/c2ccccc2)cc1", -0.2],
  ["Oc1cc(O)cc(/C=C/c2ccc3c(c2)OCO3)c1", 0.6]
]}

Write down fold change (FC) measured for item COc1ccc(/C=C/c2cc(OC)cc(OC)c2)cc1
0.3

Write down fold change (FC) measured for item COc1cc(/C=C/c2ccccc2)cc(OC)c1
0.5

Write down fold change (FC) measured for item O=C(Nc1ccc(O)cc1)c1cc(O)cc(O)c1
-0.6

Write down fold change (FC) measured for item Oc1cc(O)cc(/C=C/c2cc(Br)c(O)c(Br)c2)c1
0.8

Write down fold change (FC) measured for item Oc1cc(O)cc(/C=C/c2ccc(OCc3ccccc3)cc2)c1
0.7

###

Target: Transient receptor potential cation channel subfamily A member 1 (Homo sapiens, UniProt O75762)
Test: Inhibition of human TRPA1 expressed in HEK293 cells assessed as decrease in AITC-induced current response by whole cell patch clamp method
Format: cell-based
outcome.measure: IC50 (nM)
Give the value, in units of nM, as a plain number.

Write down IC50 measured for item Oc1ccc(/C=C/c2cc(O)cc(O)c2)cc1
750

###

Molecular target: Transient receptor potential cation channel subfamily A member 1 (Homo sapiens, UniProt O75762)
Assay: Inhibition of human TRPA1 expressed in HEK293 cells assessed as decrease in AITC-induced calcium influx at 10 uM preincubated for 6 mins followed by AITC addition measured for 1 min by Fluo-4 dye-based assay relative to control
Assay type: cell-based
outcome.measure: inhibition (%)
Give the value, in units of %, as a plain number.

Worked cases, inhibition given:
{"columns": ["compound", "test.result"],
 "data": [
  ["Clc1ccc(/C=C/c2cc(Cl)cc(Cl)c2)cc1", 7.2],
  ["Oc1ccc(/C=C/c2cc(Br)c(O)c(Br)c2)cc1", 37.3]
]}

Write down inhibition measured for item Oc1ccc(CCc2cc(O)cc(O)c2)cc1 [DIHYDRORESVERATROL]
1.2

Write down inhibition measured for item Oc1ccccc1/C=C/c1ccccc1
-5

Write down inhibition measured for item Oc1ccc(/C=C/c2cc(O)cc(O)c2)cc1
2.5

Write down inhibition measured for item Clc1cc(Cl)cc(/C=C/c2ccccc2)c1
6.2

Write down inhibition measured for item Oc1cc(O)cc(/C=C/c2ccc(Cl)cc2)c1
5.6

Write down inhibition measured for item COc1ccc(NC(=O)c2cc(O)cc(O)c2)cc1
-8.2
